Data origin: paper PMC11489721

- target.under.test: heterodimeric receptor (T1R2/T1R3), VFD2 and VFD3 (Homo sapiens, UniProt Q7RTX0+Q8TE23)
- protocol.summary: Kinetic binding of [14C]-sucrose, taste bud cell membranes
- measurement.context: from kinetic binding, ratio koff/kon
reported.metric: pKd
pKd here is simply -log10 of the concentration when that concentration is written in mol/L.

Given item OC[C@H]1O[C@@](CO)(O[C@H]2O[C@H](CO)[C@@H](O)[C@H](O)[C@H]2O)[C@@H](O)[C@@H]1O [[^14C]-sucrose, [^14C]-Sucrose] , the value recorded as its pKd is 1.91

----------
- target.under.test: heterodimeric receptor (T1R2/T1R3), TMD2 binding site (Homo sapiens, UniProt Q7RTX0+Q8TE23)
- Sequence (Q8TE23 20-839): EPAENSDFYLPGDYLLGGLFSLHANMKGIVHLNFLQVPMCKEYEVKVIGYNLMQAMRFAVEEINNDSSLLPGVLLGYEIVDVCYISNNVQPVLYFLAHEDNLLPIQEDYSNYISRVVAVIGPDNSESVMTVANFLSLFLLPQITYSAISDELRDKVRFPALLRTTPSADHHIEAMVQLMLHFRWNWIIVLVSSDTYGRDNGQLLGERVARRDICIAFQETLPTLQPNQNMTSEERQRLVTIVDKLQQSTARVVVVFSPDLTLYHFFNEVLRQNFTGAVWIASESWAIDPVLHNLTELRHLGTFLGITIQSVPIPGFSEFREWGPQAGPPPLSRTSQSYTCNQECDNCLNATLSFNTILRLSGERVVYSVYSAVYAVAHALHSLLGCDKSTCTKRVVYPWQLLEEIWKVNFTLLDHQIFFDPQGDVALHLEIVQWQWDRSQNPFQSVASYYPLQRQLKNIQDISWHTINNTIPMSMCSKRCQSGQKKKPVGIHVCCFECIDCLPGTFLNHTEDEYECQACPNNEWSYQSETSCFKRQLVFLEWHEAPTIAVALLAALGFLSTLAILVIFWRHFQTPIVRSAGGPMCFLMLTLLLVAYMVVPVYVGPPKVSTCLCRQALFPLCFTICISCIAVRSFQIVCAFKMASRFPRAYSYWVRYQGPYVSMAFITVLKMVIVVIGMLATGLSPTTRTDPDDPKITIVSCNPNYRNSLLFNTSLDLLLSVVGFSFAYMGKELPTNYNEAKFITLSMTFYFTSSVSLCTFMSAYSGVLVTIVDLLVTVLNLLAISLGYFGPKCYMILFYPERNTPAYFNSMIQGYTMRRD
- Sequence (Q7RTX0 21-852): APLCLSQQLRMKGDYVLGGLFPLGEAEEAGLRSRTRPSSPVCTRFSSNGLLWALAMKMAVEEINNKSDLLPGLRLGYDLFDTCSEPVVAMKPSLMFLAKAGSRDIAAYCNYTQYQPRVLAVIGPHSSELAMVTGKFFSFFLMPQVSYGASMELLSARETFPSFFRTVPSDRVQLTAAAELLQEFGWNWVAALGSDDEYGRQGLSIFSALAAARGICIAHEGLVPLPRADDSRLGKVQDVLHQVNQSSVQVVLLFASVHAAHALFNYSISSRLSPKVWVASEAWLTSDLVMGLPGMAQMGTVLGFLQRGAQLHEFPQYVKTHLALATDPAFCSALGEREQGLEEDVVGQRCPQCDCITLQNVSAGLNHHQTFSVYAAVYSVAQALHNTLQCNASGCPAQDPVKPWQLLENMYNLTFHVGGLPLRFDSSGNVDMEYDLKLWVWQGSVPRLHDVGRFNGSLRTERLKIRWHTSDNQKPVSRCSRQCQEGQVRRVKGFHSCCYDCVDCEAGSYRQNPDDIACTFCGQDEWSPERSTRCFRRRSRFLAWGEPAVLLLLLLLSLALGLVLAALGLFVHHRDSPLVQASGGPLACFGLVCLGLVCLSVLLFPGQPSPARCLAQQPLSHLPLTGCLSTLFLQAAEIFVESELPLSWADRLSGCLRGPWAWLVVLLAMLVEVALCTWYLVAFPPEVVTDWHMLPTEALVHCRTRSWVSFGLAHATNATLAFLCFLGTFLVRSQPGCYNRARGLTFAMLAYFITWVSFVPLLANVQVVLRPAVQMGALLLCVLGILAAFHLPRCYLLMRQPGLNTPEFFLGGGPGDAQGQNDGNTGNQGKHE
- protocol.summary: Competition binding with [3H]-Perillartine as radioligand
- measurement.context: radioligand [3H]-Perillartine
Where a name gives a salt, the structure may show the parent alone.
reported.metric: Competitive inhibition with perillartine

molecule="CC(C)Oc1ccc(NC(=S)NCc2ccc[nH]2)cc1 [S819]" reading="did not show inhibition"
molecule="N=C(N)NC(=O)c1nc(Cl)c(N)nc1N [Amiloride, amiloride HCL]" reading="did not show inhibition"
